System: SK-MEL-2 melanoma
EXPERIMENT: NCI tumour cell line growth inhibition, 48 h
Below, each entry is listed alongside its reported TGI.
State the answer as a number, implicitly in µM.

According to the records, this compound O=C1C(Cl)=C(c2ccc([N+](=O)[O-])cc2)C(=O)c2c(O)cccc21 displays TGI of 2.22

Read the next record carefully.
According to the records, this compound COc1cc2c(c(OC)c1)C(=O)O[C@H](C)CCCC/C=C/C2 displays TGI of 31.1

---

Test system: DU-145 prostate
EXPERIMENT: NCI tumour cell line growth inhibition, 48 h
MEASUREMENT_LABEL: TGI

According to the records, this molecule NC(=S)NNC(=S)NC(=O)c1ccco1 displays TGI of > 10 µM

According to the records, this molecule CN1c2ccccc2S(=O)(=O)n2c(CCc3ccccc3)nnc21 displays TGI of > 100 µM

According to the records, this molecule CC(=O)Nc1ccc(/C=C2/NC(=S)N(/C=C3\C(=O)Oc4ccccc4C3=O)C2=O)cc1 displays TGI of > 100 µM

According to the records, this molecule NC1c2c(Cl)sc(Cl)c2C(=O)C1O (centres undefined) displays TGI of > 100 µM

According to the records, this molecule O=C(O)COc1cc(-c2ccccc2)nc2ccccc12 displays TGI of > 100 µM

Continuing:
According to the records, this molecule CC(=Nc1cc(Cl)cc(Cl)c1)c1ccncc1 displays TGI of > 100 µM

According to the records, this molecule COc1ccc(NC(=O)CC(=O)N2N=C(N(c3ccccc3)c3ccccc3)CC2c2ccccc2)cc1 (centres undefined) displays TGI of > 100 µM

According to the records, this molecule CC(C#N)N(CCc1ccccc1)C(=O)c1ccccc1 (centres undefined) displays TGI of > 100 µM

According to the records, this molecule O=C(O)c1cccc(/C=C/c2ccccc2)c1 displays TGI of > 100 µM

According to the records, this molecule Cn1c2ccc(C3=NCCN3)cc2c2cc(C3=NCCN3)ccc21 displays TGI of > 100 µM

According to the records, this molecule C/C(=N/NC(=S)N1CCN(C(=S)N/N=C(/C)c2ccccn2)CC1)c1ccccn1 displays TGI of > 95.5 µM

According to the records, this molecule COc1ccc(/C=C\c2cc(OC)c(OC)c(OC)c2)c(NS(=O)(=O)c2ccc(Cl)cc2)c1O displays TGI of > 100 µM

According to the records, this molecule O=C(O)CCSC1=NCCN1 displays TGI of > 100 µM

According to the records, this molecule Cc1nc2cccc(F)c2c(=O)n1-c1nnc(C(F)(F)F)s1 displays TGI of > 10 µM

According to the records, this molecule C/C(=N\NC(=S)N1CCN(c2ccccn2)CC1)c1nccs1 displays TGI of 14.1 µM

According to the records, this molecule N#Cc1c(N2CCN(c3ccc([N+](=O)[O-])cc3)CC2)[n+](=O)c2ccc(-c3ccc([N+](=O)[O-])cc3)cc2n1[O-] displays TGI of > 100 µM

According to the records, this molecule COc1cc2c(cc1OC)C(=O)/C(=C/c1ccc(O)cc1)CC2 displays TGI of > 10 µM

According to the records, this molecule C/C(=C(/c1ccc(O)cc1)c1ccc(Cl)cc1)c1ccccc1 displays TGI of 1.91 µM

According to the records, this molecule COc1ccc(NC(=O)n2nc(/C=C\c3ccc(O)c(OC)c3)cc2/C=C\c2ccc(O)c(OC)c2)cc1 displays TGI of 24.6 µM
